All values here come from patent US20250295660A1.

- System: sNF96.2 (MPNST) cell line
- method-notes: Cell viability of NF1-mutant tumor cell line sNF96.2 (MTT or AlamarBlue)
- Format: cell-based
- reported-conditions: 144 h, NF1 c. 3683delC + LOH, 6 days treatment
assay-endpoint: EC50 (nM)

- N[C@H]1CC[C@H](N[C@@H]2C[C@H]2c2ccccc2)CC1: 0.042

----------
- Test system: hTERT ipNF95.11b C (plexiform neurofibroma) cell line
- method-notes: Cell viability of NF1-mutant tumor cell line hTERT ipNF95.11b C (MTT or AlamarBlue)
- Type: cell-based
- reported-conditions: 168 h, NF1 c. 1756delACTA/ LOH, 7 days treatment
assay-endpoint: EC50 (nM)

- N[C@H]1CC[C@H](N[C@@H]2C[C@H]2c2ccccc2)CC1 [Iadademstat]: 0.14
